- Tested on: SW-620
- EXPERIMENT: NCI tumour cell line growth inhibition, 48 h
Calls of active or inactive are those of the source. No stated cut-off is given here; in the data, active = GI50 up to about 1.1 µM and inactive = higher.
Listing of entries alongside the reported GI50.
MEASURED_QUANTITY: GI50

compound=N#CCCC(CCC#N)(CCC#N)NO measured_result="> 100 µM (inactive)"
compound=CCOC(=O)/C(C(C)=O)=C(\OC(C)=O)c1ccncc1C(=O)O measured_result="> 100 µM (inactive)"
compound=O=c1c2cccnc2[nH]c2ccc3scnc3c12 measured_result="> 10 µM (inactive)"
compound=COCCOCOc1ccc(OCOCCOC)c2c1C(=O)c1ccccc1C2=O measured_result="36.5 µM (inactive)"
compound=Cc1c(C(=O)O)n(C)c(=O)n(C)c1=O measured_result="> 100 µM (inactive)"
compound=CCOP(=O)(CN=C(c1ccccc1)c1ccccc1)OCC measured_result="> 100 µM (inactive)"
compound=O=[N+]([O-])c1ccc(-c2cnc3ccccn23)cc1 measured_result="> 100 µM (inactive)"
compound="CCOC(=O)C1Cc2c(ccc(OC)c2OC)C(=O)C1N (stereo not given)" measured_result="> 100 µM (inactive)"
compound=O=C(NNC(=O)c1ccccc1O)c1cccc(Br)c1 measured_result="35 µM (inactive)"
compound=COc1ccccc1-n1c(NN)nc2ccc(Br)cc2c1=O measured_result="53 µM (inactive)"
compound=O=S(=O)(Sc1ccc(Cl)cc1)c1ccc(Cl)cc1 measured_result="17.6 µM (inactive)"
compound=Cn1nc(-c2ccccc2)c2c(/C=C/c3ccc(Cl)cc3)onc2c1=O measured_result="28.7 µM (inactive)"
compound=CC(=O)NC1=CC(=O)c2cc(C)cc(O)c2C1=O measured_result="3.41 µM (inactive)"
compound=CN(C)Cc1[nH]c2ccccc2c1C(=O)c1ccccc1 measured_result="> 100 µM (inactive)"
compound=CCOc1cc(-c2nc3ccccn3c2/N=C/c2cc([N+](=O)[O-])cc([N+](=O)[O-])c2O)ccc1O measured_result="> 100 µM (inactive)"

###

- Test system: A549
- EXPERIMENT: NCI tumour cell line growth inhibition, 48 h
The source made the active and inactive calls. No stated cut-off is given here; in the data, active = GI50 up to about 1.1 µM and inactive = higher.
MEASURED_QUANTITY: GI50

compound=C[C@]12CC/C(=N\O)C=C1CC[C@@H]1[C@@H]2CC[C@]2(C)C(=N/O)/C(=C/c3cccnc3)C[C@@H]12 target_under_test=A549 measured_quantity=GI50 measured_result="13.1 µM (inactive)"
compound=O=C/C(=C1/C=Cc2cc([N+](=O)[O-])ccc2S1)c1ccccc1 target_under_test=A549 measured_quantity=GI50 measured_result="> 100 µM (inactive)"
compound="N#C/C=C1\\C=CC(O)C(O)C1OC1OC(CO)C(O)C(O)C1O (centres undefined)" target_under_test=A549 measured_quantity=GI50 measured_result="> 100 µM (inactive)"
compound="CC(=O)NC(Cc1c[nH]cn1)C(=O)N1CCCC1C(N)=O (centres undefined)" target_under_test=A549 measured_quantity=GI50 measured_result="> 100 µM (inactive)"

###

Listing of entries alongside the reported GI50.
- Tested on: HT-29
- EXPERIMENT: NCI tumour cell line growth inhibition, 48 h
The source made the active and inactive calls. Rule as the data show it: active = GI50 up to about 1.1 µM and inactive = higher.
MEASURED_QUANTITY: GI50

molecule="N#CSC1CCCCNC1=O (stereo unspecified)" measured_result="11.5 µM (inactive)"
molecule=CCSc1cc2c(cc1O)CC[C@@H]1[C@@H]2CC[C@]2(C)[C@@H](O)CC[C@@H]12 measured_result="10.8 µM (inactive)"
molecule=COc1ccc(/C=C2\C(=O)N(C(=O)c3ccc(NC(C)=O)cc3)N=C2C)cc1 measured_result="> 100 µM (inactive)"
molecule=COc1cccc(C=C(C#N)C#N)c1OC measured_result="> 100 µM (inactive)"
molecule=CCc1cccc(CC)c1NC(=O)C1=C(C)NC(C)=C(C(=O)Nc2c(CC)cccc2CC)C1c1ccc([N+](=O)[O-])cc1 measured_result="17.1 µM (inactive)"
molecule=CCOC(=O)c1c[nH]c2cc3c(cc2c1=O)CCS3(=O)=O.CCOC(=O)c1c[nH]c2ccc3c(c2c1=O)S(=O)(=O)CC3 measured_result="> 100 µM (inactive)"
molecule="CCCCN(C(=O)c1ccccc1)C1CCC(=O)c2[nH]c3ccccc3c21 (stereo unspecified)" measured_result="20.5 µM (inactive)"
molecule=CC1=NN(C(=O)c2ccccc2O)C(=O)/C1=C/c1c(O)ccc2ccccc12 measured_result="10.2 µM (inactive)"
molecule=Cc1[nH]c(-c2ccccc2)c(-c2ccc(Cl)cc2)c1C(=O)ONC(=O)c1ccccc1 measured_result="4.6 µM (inactive)"
molecule=Cc1ncc([N+](=O)[O-])n1CCN(C)CCCCn1ccnc1[N+](=O)[O-] measured_result="> 100 µM (inactive)"
molecule=O=c1oc2cc(/N=C/c3ccc4c(c3)OCO4)ccc2c2ccccc12 measured_result="50.9 µM (inactive)"
molecule=CN(C)CCCNC(=O)N/N=C/c1ccccc1 measured_result="> 100 µM (inactive)"
molecule=CN(CCCN1CCCC1)CCCN(C)C(=O)Cc1ccc(Cl)c(Cl)c1 measured_result="3.77 µM (inactive)"
molecule=O=C(NCCCl)NCc1ccccc1 measured_result="> 100 µM (inactive)"
molecule="COc1cc(COC(=O)N2CC=CC2C(=O)O)c([N+](=O)[O-])cc1OC (stereo unspecified)" measured_result="> 100 µM (inactive)"
molecule="CC(=O)SCCC1c2[nH]c3ccccc3c2CCN1O (stereo unspecified)" measured_result="> 100 µM (inactive)"
molecule=O=C1NC(=O)C(CCO)(c2ccccc2)C(=O)N1 measured_result="> 100 µM (inactive)"
molecule="CC(C)(C)C1CC[C@H](O)[C@H]([C@@H](O)CC2CC(=O)N(c3ccccc3)C(=O)C2)C1 (stereo partly specified)" measured_result="23.1 µM (inactive)"
molecule=CCOc1cc(-c2nc3ccccn3c2/N=C/c2cc([N+](=O)[O-])cc([N+](=O)[O-])c2O)ccc1O measured_result="> 100 µM (inactive)"
molecule="COc1cccc(N2C(=O)C3C4C=C5c6ccccc6N(c6ccccc6)C5(C3C2=O)[C@H]2C(=O)N(c3cccc(OC)c3)C(=O)[C@@H]42)c1 (stereo partly specified)" measured_result="> 100 µM (inactive)"
molecule=C/C(=N\NC(=O)CC(=O)N(C(=O)c1ccc(Cl)cc1)c1ccc(C)cc1)c1ccccc1O measured_result="48.1 µM (inactive)"
